# ASSAY PROTOCOL: cytotoxicity in IOSE-T80 ovarian epithelial cells, dose response, selectivity assay for PAX8 inhibitor project, cell-based, cherry-pick (AID 687032);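 further: cells exposed to compound for 96 h before reading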
# TEST PARAMETERS: CellTiterGlo ATP luminescence, 96 h; series mostly up to 35 µM
Entries with a potency or affinity are not part of this list. Results filed as inconclusive are left out. Calls of active or inactive are those of the source.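 How the source made its calls: active means fitted half-maximal concentration for viability loss no higher than twice the top valid dose, in every repeat run; inconclusive means repeat runs disagree, flat partial loss, or poor curve fit; inactive means the rest.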
MEASURED PROPERTY: outcome

Sample records with outcome:
>>> reported_value("C[C@H](CO)N1C[C@H](C)[C@H](CN(C)C(=O)Nc2ccc(-c3cccs3)cc2)OCc2cnnn2CCCC1=O")
"inactive"
>>> reported_value("COc1cccc(S(=O)(=O)N2CC[C@@H]3[C@H](CO)Nc4ccc(C5=CCCCC5)cc4[C@@H]32)c1")
"inactive"
>>> reported_value("Cc1ccc(S(=O)(=O)Nc2ccc3c(c2)C(=O)N([C@H](C)CO)C[C@H](C)[C@@H](CN(C)S(=O)(=O)c2ccc(Cl)cc2)OCCCC[C@H](C)O3)cc1")
"inactive"
>>> reported_value("C[C@@H]1CN([C@@H](C)CO)C(=O)Cc2cc(NC(=O)Nc3ccc(C(F)(F)F)cc3)ccc2O[C@H]1CN(C)S(=O)(=O)c1ccc(F)cc1")
"inactive"
>>> reported_value("C[C@H]1CCCCO[C@H](CN(C)S(=O)(=O)c2ccc(Cl)cc2)[C@@H](C)CN([C@@H](C)CO)C(=O)c2cc(NS(=O)(=O)c3ccc(F)cc3)ccc2O1")
"inactive"

Inquiry: Which outcome value is on record for C[C@@H]1CCCCO[C@@H](CN(C)Cc2ccc(Cl)c(Cl)c2)[C@H](C)CN([C@@H](C)CO)C(=O)c2cc(NC(=O)Nc3ccc(C(F)(F)F)cc3)ccc2O1 ?
Reply text: inactive
